From: the NIST ThermoML archive (doi:10.1021/je030167i)

- test.settings: 313.15 K; 101.3 kPa; Liquid
quantity.name: kinematic viscosity (m2/s)
Answers are plain numbers, in m2/s.

Worked examples follow.
compound	quantity.name	reported.result
CCCCO	kinematic viscosity	2.22e-06
CCC(C)Cl (stereo not drawn)	kinematic viscosity	3.97e-07
CC(C)(C)O	kinematic viscosity	2.74e-06
CC(C)CCl	kinematic viscosity	4.29e-07
CCCCCl	kinematic viscosity	4.21e-07

# map each compound to its kinematic viscosity
1. CC(C)CO
2. CC1CCCO1 (stereo not drawn) [2-methyltetrahydrofuran]
3. CCC(C)O (stereo not drawn)

["2.74e-06", "4.92e-07", "2.24e-06"]
